- system: DNA repair protein RAD52 homolog (Homo sapiens) (UniProt P43351)
- Sequence (P43351 whole entry, looked up): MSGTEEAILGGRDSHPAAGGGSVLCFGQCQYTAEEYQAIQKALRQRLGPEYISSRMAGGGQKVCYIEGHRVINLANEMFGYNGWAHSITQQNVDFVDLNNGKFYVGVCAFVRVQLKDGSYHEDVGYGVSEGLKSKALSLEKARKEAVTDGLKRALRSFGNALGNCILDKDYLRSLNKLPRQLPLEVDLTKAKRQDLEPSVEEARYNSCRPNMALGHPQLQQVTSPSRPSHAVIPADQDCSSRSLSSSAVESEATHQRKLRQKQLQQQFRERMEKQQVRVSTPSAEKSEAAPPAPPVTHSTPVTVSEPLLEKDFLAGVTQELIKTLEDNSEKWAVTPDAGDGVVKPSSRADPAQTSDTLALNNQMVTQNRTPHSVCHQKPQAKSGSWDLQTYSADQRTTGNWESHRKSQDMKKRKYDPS
- assay_notes: inhibition of RAD52-mediated strand annealing – biochemical, FRET, single point, primary screen (AID 651660);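 note: 0% = median of neutral control wells and 100% = median of positive control wells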
- reported_conditions: Recombinant RAD52 ssDNA annealing, FRET fluorescence, 30 min; at 18.7 µM; active compounds read high
The campaign covered roughly 1,900 compounds. About 15 (0.8%) were called active. This is one part of a sample in which actives are shown more often than they occur.
Consider the following compounds; for each one, report its inhibition.
Give bare numbers, in %.

Below, 5 compounds whose answers are already recorded.
compound	measured_result
Cc1ccc2nc(NC3=NC(CC(=O)O)C(=O)N3)nc(C)c2c1 (stereo not given)	7.8
CC(C)COCC1CC2(CC(C)(c3csc(N)n3)OC2=O)C(=O)O1 (stereo not given)	-11.3
Cc1ccc2nc(N=C(N)N)nc(C)c2c1	66.7
CN(C)c1ccc(C(CN)c2c[nH]c3ccccc23)cc1 (stereo not given)	-2.21
O=C(CN1C(=O)C2CCc3[nH]c4ccccc4c3C2C1=O)N1CCCC1 (stereo not given)	-14.6

Kindly give each listed record's inhibition.
1. COC(=O)c1cc(-c2c(C)oc3cc(OC)ccc3c2=O)c(C)o1
2. OCCN(Cc1nc(-c2ccc3c(c2)OCO3)no1)Cc1cccs1
3. COc1ccc(C2C3=C(CC(C)(C)CC3=O)N(C)C3=C2C(=O)CC(C)(C)C3)cc1
4. NCCOc1ccccc1OCCN
5. O=C(Nc1nc2ccccc2s1)c1ccc(F)cc1
6. COc1ccc(C(CC(=O)N2CCOCC2)C(C)C)cc1 (stereo not given)

A.
1: 2.67; 2: 2.4; 3: -13.9; 4: 2.09; 5: 4.49; 6: 4.92

Parameters: items (list). Returns: inhibition for each item.
1. C=C(C)COc1ccc(-c2n[nH]c(C)c2-c2ccc(OC)cc2)c(O)c1
2. COc1ccc(-c2noc(-c3ccccc3-c3ccccc3)n2)cc1
3. CC(C)CC1c2[nH]c3ccccc3c2CCN1C(=O)CCC(=O)N(C)C (stereo not given)
4. S=C(NCCOCCOCCNC(=S)Nc1ccccc1)Nc1ccccc1
5. COc1ccc(S(=O)(=O)N2CCN(C(=O)COc3ccc4c(C)cc(=O)oc4c3)CC2)cc1
6. CC(C)CCn1c(N2CCc3ccccc3C2)nc2c1c(=O)[nH]c(=O)n2C

A.
1: 17.8; 2: 2.09; 3: -3.31; 4: 4.23; 5: -4; 6: -3.91

Look at each compound and report its inhibition.
1. CCc1cccc(OC2OC(CO)C(O)C(O)C2NC(C)=O)c1 (stereo not given)
2. COc1ccc(CNC(=O)C2CCN(C(=O)[C@@H](CC(C)C)NC(=O)OC(C)(C)C)CC2)cc1
3. COc1cccc2c1C(=O)O/C2=C/c1ccc2c(c1)OCO2

A.
-3.23
2.06
-3.05

* * *

- system: DNA repair protein RAD52 homolog (Homo sapiens) (UniProt P43351)
- assay_notes: inhibition of RAD52-mediated strand annealing – biochemical, FRET, single point, primary screen (AID 651660);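 note: 0% = median of neutral control wells and 100% = median of positive control wells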
- reported_conditions: Recombinant RAD52 ssDNA annealing, FRET fluorescence, 30 min; at 18.7 µM; active compounds read high
Hit rate of the full screen: of about 1,900 compounds, about 15 (0.8%) were called active. Only a selection was taken, and actives are over-represented in it overall.
property_measured: inhibition (%)
Give bare numbers, in %.

compound	inhibition / %
O=C(CSCc1ccccc1)NCCCN1CCOCC1	7.56
CN(C)CCOC(c1ccccc1)c1ccccc1 (tested in a mixture with another compound)	0.693
COc1cc(/C=C/C(=O)N2CCCC2)cc(OC)c1OC	-3.32
COc1ccc2c(=O)c(-c3cnn(-c4ccccc4)c3)c(C)oc2c1	-8.23
CCN(CC)CCCNC(=O)C1c2ccccc2Oc2ccccc21	4.59

Would you be so kind as to report inhibition for each listed record?
1. O=C(CCCCCCCC(=O)c1ccccc1)c1ccccc1
2. CC1=C/C(=N\N=C2\NC(=O)C(CC(=O)Nc3ccccc3F)S2)CC(C)(C)C1 (configuration not stated)
3. C(=C\c1ccc2ccccc2n1)/c1ccccc1
4. COc1cccc(N2C(=O)CC(c3c[nH]c4ccccc34)C2=O)c1 (configuration not stated)

A.
1. 2.66
2. -3.25
3. 3.46
4. -22.5

* * *

Kindly supply the reported inhibition values for the records listed here.
- system: DNA repair protein RAD52 homolog (Homo sapiens) (UniProt P43351)
- assay_notes: inhibition of RAD52-mediated strand annealing – biochemical, FRET, single point, primary screen (AID 651660);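 note: 0% = median of neutral control wells and 100% = median of positive control wells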
- reported_conditions: Recombinant RAD52 ssDNA annealing, FRET fluorescence, 30 min; at 18.7 µM; active compounds read high
Among all 1,900 compounds or so, about 15 (0.8%) were called active. The entries come from a sample that favours actives as a whole.
Give bare numbers, in %.

Would you mind listing inhibition for each of the following molecules?
1. O=c1c(-c2ccc3c(c2)OCCO3)coc2cc(OC3OC(CO)C(O)C(O)C3O)ccc12 (stereo unspecified)
2. CSCC[C@H](NC(=O)NC1CCCC1)C(=O)O
3. O=C(CNC(=O)OCc1ccccc1)NC1CCCCCC1
4. COc1ccc(-c2nc(C)c(C(C)=O)n2O)cc1OC

A.
2.13
-5.4
0.625
-4.44

I have 4 molecules here; please give me inhibition for each one.
1. CN1C(=O)NC(c2ccc(O)cc2)C2=C1CN(c1cccc3ccccc13)C2=O (stereo unspecified)
2. COc1ccc(C2NC(=O)c3ccccc3O2)c(OC)c1OC (stereo unspecified)
3. COc1cccc(CN2C(=O)N(C(C)C)C(N(O)C(=O)NC(C)C)C2(C)C)c1OC (stereo unspecified)
4. NC(=O)[C@@H]1[C@@H]2C(=O)N(c3ccc(F)cc3)C(=O)[C@@H]2[C@H]2C=Cc3ccccc3N21

A.
1: -2.34; 2: -1.29; 3: 2.14; 4: -124

Parameters: items (list). Returns: inhibition for each item.
1. NC(N)=N/N=C/c1cccc(Cl)c1Cl
2. Cc1oc2cc(O)cc(O)c2c(=O)c1-c1ccc2c(c1)OCCCO2
3. COc1ccc(NC(=O)CC(c2ccccc2)c2ccco2)cc1 (stereo unspecified)

A.
18.4
3.6
-8.33

* * *

- system: DNA repair protein RAD52 homolog (Homo sapiens) (UniProt P43351)
- assay_notes: inhibition of RAD52-mediated strand annealing – biochemical, FRET, single point, primary screen (AID 651660);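 note: 0% = median of neutral control wells and 100% = median of positive control wells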
- reported_conditions: Recombinant RAD52 ssDNA annealing, FRET fluorescence, 30 min; at 18.7 µM; active compounds read high
Among all 1,900 compounds or so, about 15 (0.8%) were called active. Many of the other results were omitted from the sample, so actives are more common in it than they were.
Would you mind telling me the reported inhibition of each entry?
One number for each entry, in %.

Solved cases (10 shown):
molecule	measured_result
CC(CN1c2ccccc2Sc2ccccc21)N(C)C (stereo unspecified)	7.73
COc1ccc(N2C(=O)[C@@H]3Cc4ccccc4CN3C2=O)cc1	-7.83
CSc1ccc2c(c1)N(CCC1CCCCN1C)c1ccccc1S2 (stereo unspecified)	61.6
COc1cc(CO)ccc1OCc1nnnn1-c1ccc(C)cc1	5.41
COC1(C)CC2C(CC1OC(=O)c1cc([N+](=O)[O-])cc([N+](=O)[O-])c1)C2(C)C (stereo unspecified)	2.54
COc1cccc2c(O)cc(=O)n(C)c12	6.83
Cc1ccc(C2CC(=O)C(C=NCCN3CCN(CC(=O)Nc4cc(C)cc(C)c4)CC3)=C(O)C2)cc1 (stereo unspecified)	-3.07
Cc1ccc(C2CC(=O)C(C=NCCN3CCN(C(=S)Nc4ccccc4)CC3)=C(O)C2)cc1 (stereo unspecified)	4.06
CSc1cccc(NC(=O)/C=C/c2ccccc2)c1	5.27
Cc1ccc2c(c1)C(O)(CC(=O)/C=C/C=C/c1ccccc1)C(=O)N2 (stereo unspecified)	-10.7

Then this molecule:
Q. Recall and state the measured inhibition for `Clc1ccc(CCNc2ncnc3nc[nH]c23)cc1` .
A. 1.95

* * *

- system: DNA repair protein RAD52 homolog (Homo sapiens)
- assay_notes: inhibition of RAD52-mediated strand annealing – biochemical, FRET, single point, primary screen (AID 651660);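 note: 0% = median of neutral control wells and 100% = median of positive control wells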
- reported_conditions: Recombinant RAD52 ssDNA annealing, FRET fluorescence, 30 min; at 18.7 µM; active compounds read high
The whole screen tested about 1,900 compounds, of which about 15 (0.8%) were called active. The entries come from a sample that favours actives as a whole.
property_measured: inhibition (%)
Give bare numbers, in %.

Take a look at these entries with their results.
molecule	system	inhibition (%)
CN(C)CCCN1c2ccccc2Sc2ccc(C(F)(F)F)cc21	DNA repair protein RAD52 homolog (Homo sapiens)	29.1
Cc1cccc(Nc2ccccc2C(=O)O)c1C	DNA repair protein RAD52 homolog (Homo sapiens)	-13.3
Cc1oc2c(CN3CCCC3)c(O)ccc2c(=O)c1-c1ccc(Cl)cc1	DNA repair protein RAD52 homolog (Homo sapiens)	2.93
O=C(O)c1ccccc1Nc1cccc(C(F)(F)F)c1	DNA repair protein RAD52 homolog (Homo sapiens)	-6.2
CN(C)CCCN1c2ccccc2Sc2ccccc21	DNA repair protein RAD52 homolog (Homo sapiens)	7.51

Below are 6 molecules. Give each one its inhibition.
1. OC(CCCN1CCCCC1)(c1ccccc1)c1ccccc1
2. c1ccc(Nc2cccc3c(Nc4ccccc4)cccc23)cc1
3. CCOC(=O)c1ccc(N2C(=O)C(CC(N)=O)N(CCc3ccc(OC)c(OC)c3)C2=S)cc1 (configuration not stated)
4. Cc1ccc2c(ccc(=S)n2C)c1
5. O=C(NCCCCCc1nc2ccccc2[nH]1)c1ccccc1Cl
6. CNCCCN1c2ccccc2CCc2ccccc21

A.
1. 10.1
2. 51.9
3. 3.53
4. -5.88
5. -0.634
6. -18.4

Q. Using the record for `COc1cc(CC(=O)NCCc2ccc(S(N)(=O)=O)cc2)cc(OC)c1OC` , state its measured inhibition.
A. -2.62
